Biological target: Serine/threonine-protein kinase PLK4 (Homo sapiens, UniProt O00444); also: in the data inactive means no Kd found up to 30 µM
Sequence (O00444 whole entry): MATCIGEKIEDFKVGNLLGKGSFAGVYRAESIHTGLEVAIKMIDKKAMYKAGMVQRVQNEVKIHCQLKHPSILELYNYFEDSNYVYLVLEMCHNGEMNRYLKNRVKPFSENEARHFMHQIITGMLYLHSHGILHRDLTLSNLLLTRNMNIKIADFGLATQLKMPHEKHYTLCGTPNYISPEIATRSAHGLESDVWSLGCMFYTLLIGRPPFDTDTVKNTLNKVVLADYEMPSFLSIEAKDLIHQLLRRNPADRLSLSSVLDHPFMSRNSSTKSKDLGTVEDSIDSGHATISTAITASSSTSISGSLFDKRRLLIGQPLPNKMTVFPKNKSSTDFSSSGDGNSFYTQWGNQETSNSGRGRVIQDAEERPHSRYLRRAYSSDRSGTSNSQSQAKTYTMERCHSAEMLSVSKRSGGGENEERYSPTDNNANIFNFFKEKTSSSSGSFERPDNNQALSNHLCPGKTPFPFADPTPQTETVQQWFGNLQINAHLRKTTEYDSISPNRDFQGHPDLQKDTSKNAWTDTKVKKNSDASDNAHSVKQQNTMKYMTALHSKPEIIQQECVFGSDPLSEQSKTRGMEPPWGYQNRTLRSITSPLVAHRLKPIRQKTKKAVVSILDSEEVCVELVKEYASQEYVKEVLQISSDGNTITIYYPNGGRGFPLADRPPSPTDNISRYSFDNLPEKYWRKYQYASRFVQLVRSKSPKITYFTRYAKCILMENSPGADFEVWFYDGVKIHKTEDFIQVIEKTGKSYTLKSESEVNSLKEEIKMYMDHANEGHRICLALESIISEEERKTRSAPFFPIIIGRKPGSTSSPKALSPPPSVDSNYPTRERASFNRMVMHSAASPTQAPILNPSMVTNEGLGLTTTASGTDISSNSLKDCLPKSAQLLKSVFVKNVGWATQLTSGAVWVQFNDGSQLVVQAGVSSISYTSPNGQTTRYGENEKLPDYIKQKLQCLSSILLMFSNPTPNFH
Activity calls are given as the source filed them.
Your response should consist of one outcome taken from active, inactive

These recorded examples may help you get a feel for the data.
| CHEMICAL SMILES | LABEL CLASS |
| --- | --- |
| CNC(=O)c1cc(Oc2ccc(NC(=O)Nc3cc(C(C)(C)C)nn3-c3ccc4ncccc4c3)c(F)c2)ccn1 | active |
| CC(C)(C)c1nc(-c2cccc(NS(=O)(=O)c3c(F)cccc3F)c2F)c(-c2ccnc(N)n2)s1 | active |
| COc1cc([C@@H]2c3cc4c(cc3[C@H](O)[C@H]3COC(=O)[C@@H]23)OCO4)cc(OC)c1OC | inactive |
| CN(C[C@@H]1COCCO1)S(=O)(=O)Nc1ccc2ccc3ncc(-c4cnn(C)c4)cc3c(=O)c2c1 | inactive |
| CCOc1cc2ncc(C#N)c(Nc3ccc(F)c(Cl)c3)c2cc1NC(=O)/C=C/CN(C)C | inactive |

Entry Cc1cccc(-c2nn3c(c2-c2ccnc4ccc(C(N)=O)cc24)CCC3)n1 : call = ?
inactive

How did this test come out for O=C(Nc1c[nH]nc1-c1nc2cc(CN3CCOCC3)ccc2[nH]1)NC1CC1 ?
active

* * *

Target: Bone morphogenetic protein receptor type-1B (Homo sapiens, UniProt O00238); also: in the data inactive means no Kd found up to 30 µM
Sequence (O00238 whole entry): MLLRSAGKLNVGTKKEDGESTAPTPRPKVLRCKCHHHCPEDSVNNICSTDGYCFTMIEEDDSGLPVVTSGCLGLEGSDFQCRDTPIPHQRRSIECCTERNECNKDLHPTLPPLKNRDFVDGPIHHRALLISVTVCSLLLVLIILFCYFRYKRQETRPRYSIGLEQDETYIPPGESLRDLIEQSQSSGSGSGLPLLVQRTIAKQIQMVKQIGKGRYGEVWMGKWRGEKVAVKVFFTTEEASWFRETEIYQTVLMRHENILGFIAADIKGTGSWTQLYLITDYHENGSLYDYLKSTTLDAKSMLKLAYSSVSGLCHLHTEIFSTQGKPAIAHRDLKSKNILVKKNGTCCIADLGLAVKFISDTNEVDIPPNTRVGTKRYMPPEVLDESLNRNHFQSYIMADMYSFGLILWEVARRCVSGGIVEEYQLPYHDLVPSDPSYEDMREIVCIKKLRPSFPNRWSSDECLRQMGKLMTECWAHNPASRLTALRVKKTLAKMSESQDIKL
Active and inactive are the calls of the source.
Choose one outcome from this list and give only that: yes (active), no (inactive)

Consider the following illustrative entries.
| MOLECULE | LABEL CLASS |
| --- | --- |
| CO[C@H]1C[C@@H]2CC[C@@H](C)[C@@](O)(O2)C(=O)C(=O)N2CCCC[C@H]2C(=O)O[C@H]([C@H](C)C[C@@H]2CC[C@@H](O)[C@H](OC)C2)CC(=O)[C@H](C)/C=C(\C)[C@@H](O)[C@@H](OC)C(=O)[C@H](C)C[C@H](C)/C=C/C=C/C=C/1C [SIROLIMUS] | no |
| Cc1nc(Nc2n[nH]c3c2CN(C(=O)N[C@H](CN(C)C)c2ccccc2)C3(C)C)c2sccc2n1 [PF-03758309] | no |
| COc1c(OCCCN2CCOCC2)ccc2c1N=C(NC(=O)c1cnc(N)nc1)N1CCN=C21 [COPANLISIB] | no |
| Cc1nc2cc(-n3ncc(C(=O)c4cc5ccccc5[nH]4)c3N)ccc2[nH]1 [FGFR INHIBITOR DEBIO 1347] | no |
| CO[C@H]1C[C@@H]2CC[C@@H](C)[C@@](O)(O2)C(=O)C(=O)N2CCCC[C@H]2C(=O)O[C@H]([C@H](C)C[C@@H]2CC[C@@H](OP(C)(C)=O)[C@H](OC)C2)CC(=O)[C@H](C)/C=C(\C)[C@@H](O)[C@@H](OC)C(=O)[C@H](C)C[C@H](C)/C=C/C=C/C=C/1C [RIDAFOROLIMUS] | no |
| Cc1cc(Nc2ncnc3ccc(NC4=NC(C)(C)CO4)cc23)ccc1Oc1ccn2ncnc2c1 [TUCATINIB] | no |
| NC(=O)Nc1cc(-c2cccc(F)c2)sc1C(=O)N[C@H]1CCCNC1 [AZD-7762] | no |
| C#Cc1cccc(Nc2ncnc3cc(OC)c(OCCCCCCC(=O)NO)cc23)c1 [CUDC-101] | no |
| C[C@@H](NC(=O)c1ncnc(N)c1Cl)c1ncc(C(=O)Nc2cc(C(F)(F)F)c(Cl)cn2)s1 [TOVORAFENIB] | no |
| O=c1[nH]ccc2cc(OC3CCNCC3)ccc12 [SAR-407899 FREE BASE] | no |

Would you mind telling me which call this test gave CCNC(=O)C#Cc1ccc2c(c1)NC(=O)/C2=C(\Nc1ccc(CN(C)C)cc1)c1ccccc1 ?
no

Test call, this molecule: Cc1cnc(NC(=O)Nc2cc(Br)c(C)cc2OC[C@@H]2CNCCO2)cn1 [RABUSERTIB]
no

* * *

Molecular target: Protein kinase C alpha type (Homo sapiens, UniProt P17252); also: in the data inactive means no Kd found up to 30 µM
Calls of active or inactive are those of the source.
Mark one answer only. Choices: Y (active), N (inactive)

| CHEMICAL SMILES | EXPERIMENTAL TARGET | LABEL CLASS |
| --- | --- | --- |
| CO[C@H]1C[C@@H]2CC[C@@H](C)[C@@](O)(O2)C(=O)C(=O)N2CCCC[C@H]2C(=O)O[C@H]([C@H](C)C[C@@H]2CC[C@@H](O)[C@H](OC)C2)CC(=O)[C@H](C)/C=C(\C)[C@@H](O)[C@@H](OC)C(=O)[C@H](C)C[C@H](C)/C=C/C=C/C=C/1C | Protein kinase C alpha type (Homo sapiens, UniProt P17252) | N |
| Cn1cc(-c2cnn3c(N)c(Br)c([C@@H]4CCCNC4)nc23)cn1 | Protein kinase C alpha type (Homo sapiens, UniProt P17252) | N |
| NC1(c2ccc(-c3nc4ccn5c(=O)[nH]nc5c4cc3-c3ccccc3)cc2)CCC1 | Protein kinase C alpha type (Homo sapiens, UniProt P17252) | N |
| C[C@@H](N)c1ccc(C(=O)Nc2ccnc3[nH]ccc23)cc1 | Protein kinase C alpha type (Homo sapiens, UniProt P17252) | Y |
| CNC(=O)c1cc(Oc2ccc(NC(=O)Nc3cc(C(C)(C)C)nn3-c3ccc4ncccc4c3)c(F)c2)ccn1 | Protein kinase C alpha type (Homo sapiens, UniProt P17252) | N |

Kindly provide the recorded test outcome for the following compound: Cn1cc(-c2cnc3ccc4ccc(CS(=O)(=O)NCc5ccccn5)cc4c(=O)c3c2)cn1
N

Hi, do you know how C[C@H]1CNCCCN1S(=O)(=O)c1cccc2cncc(F)c12 came out in this test?
N

* * *

Molecular target: Serine/threonine-protein kinase D3 (Homo sapiens, UniProt O94806); also: in the data inactive means no Kd found up to 30 µM
Sequence (O94806 whole entry): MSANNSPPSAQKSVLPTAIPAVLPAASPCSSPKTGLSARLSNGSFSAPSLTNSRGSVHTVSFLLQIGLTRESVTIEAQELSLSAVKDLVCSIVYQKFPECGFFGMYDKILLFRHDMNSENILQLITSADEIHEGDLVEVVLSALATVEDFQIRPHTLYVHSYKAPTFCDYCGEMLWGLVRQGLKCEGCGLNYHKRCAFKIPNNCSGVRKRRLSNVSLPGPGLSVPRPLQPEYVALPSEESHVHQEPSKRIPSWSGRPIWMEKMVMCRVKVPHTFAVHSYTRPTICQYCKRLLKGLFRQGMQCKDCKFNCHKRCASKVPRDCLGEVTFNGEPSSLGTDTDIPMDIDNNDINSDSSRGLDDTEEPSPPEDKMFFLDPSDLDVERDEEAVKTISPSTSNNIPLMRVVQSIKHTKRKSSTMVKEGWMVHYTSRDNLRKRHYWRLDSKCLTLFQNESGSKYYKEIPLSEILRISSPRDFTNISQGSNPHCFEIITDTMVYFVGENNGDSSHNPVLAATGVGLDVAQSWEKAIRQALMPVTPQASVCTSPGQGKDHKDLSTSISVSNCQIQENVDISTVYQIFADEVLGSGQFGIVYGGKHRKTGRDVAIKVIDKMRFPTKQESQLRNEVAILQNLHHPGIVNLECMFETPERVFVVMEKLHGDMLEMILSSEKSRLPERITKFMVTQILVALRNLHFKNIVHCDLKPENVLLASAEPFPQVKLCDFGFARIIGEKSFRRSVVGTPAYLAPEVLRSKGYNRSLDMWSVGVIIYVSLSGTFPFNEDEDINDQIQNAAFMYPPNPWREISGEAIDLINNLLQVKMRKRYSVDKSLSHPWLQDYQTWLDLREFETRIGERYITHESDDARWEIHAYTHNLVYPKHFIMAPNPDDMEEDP
Calls of active or inactive are those of the source.
Please reply with one of these outcomes: Y (active), N (inactive)

For orientation, consider the following solved cases.
| MOLECULE | LABEL CLASS |
| --- | --- |
| Cc1nc2cc(-n3ncc(C(=O)c4cc5ccccc5[nH]4)c3N)ccc2[nH]1 | N |
| FC(F)(F)c1ccc(/C=C/c2nc(COc3ccc(CCCCn4ccnn4)cc3)co2)cc1 | N |
| Cc1cccc(-c2nn3c(c2-c2ccnc4ccc(C(N)=O)cc24)CCC3)n1 | N |

Hi team, can someone confirm the assay call for CNC(=O)c1cc(Oc2ccc(NC(=O)Nc3cc(C(C)(C)C)nn3-c3ccc4ncccc4c3)c(F)c2)ccn1 ?
N

Which outcome did this test record for the molecule CO[C@H]1C[C@@H]2CC[C@@H](C)[C@@](O)(O2)C(=O)C(=O)N2CCCC[C@H]2C(=O)O[C@H]([C@H](C)C[C@@H]2CC[C@@H](OP(C)(C)=O)[C@H](OC)C2)CC(=O)[C@H](C)/C=C(\C)[C@@H](O)[C@@H](OC)C(=O)[C@H](C)C[C@H](C)/C=C/C=C/C=C/1C ?
N
